- targetDesc: Sodium-dependent serotonin transporter (Homo sapiens) (UniProt P31645)
- Sequence (P31645 whole entry, looked up): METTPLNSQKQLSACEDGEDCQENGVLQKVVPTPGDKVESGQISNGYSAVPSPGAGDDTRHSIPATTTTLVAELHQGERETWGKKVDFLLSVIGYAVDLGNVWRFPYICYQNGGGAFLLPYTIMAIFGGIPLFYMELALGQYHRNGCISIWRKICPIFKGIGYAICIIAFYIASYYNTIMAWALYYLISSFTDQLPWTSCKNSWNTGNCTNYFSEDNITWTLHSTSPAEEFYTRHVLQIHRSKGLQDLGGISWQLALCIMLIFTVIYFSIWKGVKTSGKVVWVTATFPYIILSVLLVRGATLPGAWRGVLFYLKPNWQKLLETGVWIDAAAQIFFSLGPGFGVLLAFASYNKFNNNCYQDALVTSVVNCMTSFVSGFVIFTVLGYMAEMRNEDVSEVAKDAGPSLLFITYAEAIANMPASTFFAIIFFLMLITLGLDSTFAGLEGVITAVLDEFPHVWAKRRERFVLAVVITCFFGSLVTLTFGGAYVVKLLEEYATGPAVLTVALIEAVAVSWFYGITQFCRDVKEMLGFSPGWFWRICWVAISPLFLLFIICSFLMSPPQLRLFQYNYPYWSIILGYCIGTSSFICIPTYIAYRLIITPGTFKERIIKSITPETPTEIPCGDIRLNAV
- experimentSummary: Displacement of [3H]-imipramine from human 5-HT transporter expressed in CHO cell membrane assessed as inhibition of radioligand binding at 100 nM incubated for 60 mins by competition binding based scintillation counter analysis relative to control
- Format: cell membranes
Activity calls are given as the source filed them. No cut-off for these calls is given here.
valueKind: inhibition

Before answering, review these 4 worked examples.
input: Quick check: inhibition on Sodium-dependent serotonin transporter (Homo sapiens) (UniProt P31645), item O=C1CN2c3c(cccc3[C@@H]3CN(CCOc4ccc(F)cc4)CC[C@@H]32)N1 ?
output: inactive

input: Quick check: inhibition on Sodium-dependent serotonin transporter (Homo sapiens) (UniProt P31645), item O=C1CN2c3c(cccc3[C@@H]3CN(CCCCOc4ccc(F)cc4)CC[C@@H]32)N1 ?
output: inactive

input: Quick check: inhibition on Sodium-dependent serotonin transporter (Homo sapiens) (UniProt P31645), item CCCCN1CC[C@H]2[C@@H](C1)c1cccc3c1N2CC(=O)N3 ?
output: inactive

input: Quick check: inhibition on Sodium-dependent serotonin transporter (Homo sapiens) (UniProt P31645), item CC1C(=O)Nc2cccc3c2N1[C@H]1CCN(CCCOc2ccc(F)cc2)C[C@@H]31 (stereo not given in full) ?
output: inactive

Kindly consider the entry below.
input: Quick check: inhibition on Sodium-dependent serotonin transporter (Homo sapiens) (UniProt P31645), item O=C1CN2c3c(cccc3[C@@H]3CN(CCCO)CC[C@@H]32)N1 ?
output: inactive

The measured values listed here are drawn from ChEMBL document CHEMBL5506064.
